src = PubChem BioAssay (NCI)

System: LOX IMVI melanoma
test-summary: NCI tumour cell line growth inhibition, 48 h
// TGI lookup, one value per entry

Use the examples below as a reference point.
>>> test_result("Cc1nc(N)sc1C(=O)/C=C\\c1ccc2c(c1)OCO2")
"> 100 µM"
>>> test_result("CC1=NNC(N)=N/C1=C\\C(Sc1ccc(Cl)cc1)c1ccc([N+](=O)[O-])cc1 (stereo not given)")
"> 100 µM"
>>> test_result("O=c1cc(-c2ccc(F)cc2)[nH]c2ncc(Cl)cc12")
"> 100 µM"
>>> test_result("NC(N)=N/N=C(\\c1nc2ccc([N+](=O)[O-])cc2[nH]c1=O)C(O)c1ccc([N+](=O)[O-])cc1 (stereo not given)")
"> 100 µM"

Now, please, on to the next molecule.
Give the measured TGI for NC(N)=NCCC[C@H](N)C(=O)NCC(=O)N[C@@H](CC(=O)O)c1ncc(NC(=O)C(F)(F)F)o1
> 25 µM

---

System: K-562 leukemia
test-summary: NCI tumour cell line growth inhibition, 48 h
measurement-name: TGI

Worked examples follow.
>>> test_result("CCOc1ccccc1N=Nc1ccc2oc(=O)c(C(=O)Nc3cccc(C)c3)cc2c1")
"88 µM"
>>> test_result("CN1CCC(O)(C(C)(C)C)CC1")
"> 100 µM"
>>> test_result("COc1cc(-c2ccc3c(c2)NC(=O)/C3=C\\c2ccc[nH]2)ccc1O")
"> 50 µM"
>>> test_result("Cc1cccc(NC(=O)C(=O)C(C(=O)c2ccc3ccccc3c2)C2OC(=O)c3ccccc32)c1C (centres undefined)")
"> 100 µM"
>>> test_result("CCN(CC)CCNc1nc2ccc([N+](=O)[O-])cc2[n+]([O-])n1")
"54.3 µM"
>>> test_result("CC(C)n1nc(-c2cc3cc(O)ccc3[nH]2)c2c(N)ncnc21")
"36.1 µM"
>>> test_result("COc1cc(/C=C2\\C(=O)N(c3ccccc3)C(c3ccccc3)S2(=O)=O)cc(OC)c1OC (centres undefined)")
"> 100 µM"
>>> test_result("Cc1ccc(C2=C(c3ccccc3)C(Br)(c3ccc(C)cc3)C(c3ccccc3)=C2c2ccc(C)cc2)cc1")
"> 100 µM"
>>> test_result("N=C1C(c2nc3ccccc3s2)=C(O)CN1c1cc(C(F)(F)F)ccc1Cl")
"21.3 µM"
>>> test_result("Cc1cn(C2CC(N(O)Cc3ccccc3)C(CO[Si](C)(C)C(C)(C)C)O2)c(=O)[nH]c1=O (centres undefined)")
"> 100 µM"

Name the recorded TGI of the compound listed here: CC(C)[Si](OC1=C(C(=O)N(C)c2cccc(Cl)c2)CCCC1)(C(C)C)C(C)C
71.3 µM

Please indicate TGI recorded for O=C(Cc1ccccc1)NN1C(=O)C(Cl)C1c1cc(Br)ccc1O (centres undefined)
42.7 µM

# return recorded TGI for entry O=C(N/N=C/c1ccccc1)c1c(-c2cccnc2)cnc2ccccc12
> 100 µM

Return TGI (reported value) for this compound: NS(=O)(=O)c1ccc(N=Nc2c(O)[nH]c3ccc(-c4cnco4)cc23)cc1
> 25 µM

Supply TGI value. Item: Cc1ccc([N+](=O)[O-])cc1S(=O)(=O)Nc1ccc(C2=NNC(c3ccccc3)C2)cc1 (centres undefined)
85 µM

Provide TGI value for the following compound: CCOC(=O)[C@@H](N)CCC(=O)N[C@@H](CSCc1ccccc1)C(=O)N[C@@H](C(=O)OCC)c1ccccc1
75 µM

Quickly give me recorded TGI for CC(C)(C)c1cc(Br)c(O)c(CN(Cc2cc(C(C)(C)C)cc(Br)c2O)C2CCCCC2)c1
28.3 µM

Query TGI for O=Cc1c(C(=O)O)[nH]c(=O)[nH]c1=O
> 100 µM

Retrieve TGI measured for O=c1[nH]nc(-c2ccccc2)c2[nH]c3c4ccccc4ccc3c12 and print it.
> 100 µM

Please look at this compound and report its TGI: O=C(NNC(=S)Nc1cccc(Cl)c1)c1cc(-c2ccccc2)nc2ccccc12
> 100 µM

For the compound COc1cc(C(=O)N(Cc2cccnc2)C(=S)N(Cc2cccnc2)C(=O)c2cc(OC)c(OC)c(OC)c2)cc(OC)c1OC , give its measured TGI value.
> 100 µM

Annotate the compound CCOC(=O)/C=C(/C(=O)OCC)n1ccc(=O)n(Cc2cn(COCCOC(C)=O)nn2)c1=O with its measured TGI.
> 100 µM

# return recorded TGI for entry CCOCc1nc2c(OC)cc(-c3nc4ccc(N5CCN(C)CC5)cc4[nH]3)c(OC)c2[nH]1
> 100 µM

Return value of TGI for input COc1cc2c3c(n(CCCNC(=O)OCC4c5ccccc5-c5ccccc54)c(=O)c2cc1OC)-c1cc2c(cc1/C3=C\CCNC(=O)OCC1c3ccccc3-c3ccccc31)OCO2 , no commentary.
> 35.8 µM

Dear colleague, please send me the reported TGI for O=C1/C(=N/O)Cc2c(Br)ccc(Br)c21 when you can.
84.5 µM

Identify measured TGI associated with Cc1cccc(N=NC(=O)NNc2cccc(C)c2C)c1C
> 100 µM

---

Measured TGI, listed per entry for reference.
System: EKVX NSCLC
test-summary: NCI tumour cell line growth inhibition, 48 h

Please review the following examples before continuing.
>>> test_result("O=C1CSC(c2cccc(Oc3ccccc3)c2)N1c1ccc(Cl)cc1 (stereo not given)")
"78.7 µM"
>>> test_result("COCN(CCC1=CCCCC1)C(=O)OC")
"> 100 µM"
>>> test_result("COC1C=CC(O)C(CO)O1 (stereo not given)")
"> 100 µM"
>>> test_result("CN1CCC(O)(C(C)(C)C)CC1")
"> 100 µM"

Provide TGI value for the following compound: CC(C)(C)OC(=O)NC(Cc1ccc(OCc2ccccc2)cn1)C(=O)N1CCCCC1 (stereo not given)
> 100 µM

---

System: M14 melanoma
test-summary: NCI tumour cell line growth inhibition, 48 h; in the data active = GI50 below about 0.43 µM; inactive = the rest
Choose the fitting class; nothing outside T = active, F = inactive is accepted.

Dear all, I need the recorded test outcome for COc1cc2ncnc(Nc3ccc(C)c(O)c3)c2cc1OC , thank you.
F

Test call, this molecule: CN(C)C(=O)c1cc2cnc(Nc3ccc(-c4csc5c(=S)cc(N6CCOCC6)oc45)cc3)nc2n1C1CCCC1
F

Called result for O=C1OC(C(O)CO)C(=O)C1=O (configuration not stated)
F

---

Test system: NCI-H23 lung
test-summary: NCI tumour cell line growth inhibition, 48 h
measurement-name: TGI

Take a look at these entries with their results.
>>> test_result("CCOC(=O)N/N=C(/N)c1cccc([N+](=O)[O-])c1")
"> 100 µM"
>>> test_result("CCN(CC)C(=O)Cn1c(C)cc2ccccc21")
"> 100 µM"
>>> test_result("COc1ccccc1/C=C1\\SC(=S)N(/C=C2\\C(=O)Oc3ccccc3C2=O)C1=O")
"10.1 µM"
>>> test_result("COc1ccc(C(=O)C(C(=O)CCC(=O)Nc2cccc(Cl)c2)c2ccc(OC)cc2)cc1 (stereo not drawn)")
"> 100 µM"
>>> test_result("Cc1ccc(C2=C(c3ccccc3)C(Br)(c3ccc(C)cc3)C(c3ccccc3)=C2c2ccc(C)cc2)cc1")
"> 100 µM"

// fetch TGI for CCCCCCCC/C=C/CCCCCCCC(=O)OC[C@H]1O[C@@H](n2ccc(N)nc2=O)C(F)(F)[C@@H]1O ; system: NCI-H23 lung
21.1 µM

Report TGI under test system NCI-H23 lung for CCC[CH2][Sn]1([CH2]CCC)[O]CC(CN2CCCC2)[O]1 (stereo not drawn) .
27.7 µM

// fetch TGI; item: CCOC(=O)c1c(C)n(Cc2ccc(Cl)cc2Cl)c2c1c(CN(C)C)c(O)c1[nH]cnc12 ; system: NCI-H23 lung
5.95 µM

State the measured TGI (NCI-H23 lung) of CC(=O)CSCc1ccccn1
> 100 µM

Please tell me the measured TGI for NC(Cc1ccccc1)C(=O)N[C@H]1c2ccsc2/C(=N/O)[C@H]1O (stereo partly drawn) ; system: NCI-H23 lung.
> 100 µM

Recall the reported TGI of COC1=C(C)C(=O)c2c(c(COC(N)=O)c3n2CC2C3N2C)C1=O (stereo not drawn) when tested on NCI-H23 lung.
< 0.0363 µM

---

System: PC-3 prostate
test-summary: NCI tumour cell line growth inhibition, 48 h
measurement-name: GI50

See these solved cases before continuing.
>>> test_result("NS(=O)(=O)c1ccc(N=Nc2c(O)[nH]c3ccc(-c4cnco4)cc23)cc1")
"> 25000 nM"
>>> test_result("Cc1cc(C(=O)Nc2ncc(Cc3cccc(C(F)(F)F)c3)s2)c2ccccc2n1")
"2310 nM"
>>> test_result("CC(C)(C)c1cc(C(C)(C)C)cc(S(=O)(=O)Nc2cc3ccccc3cc2C(=O)NCCN)c1")
"2400 nM"

Turning to the following compound.
Please look at this compound and report its GI50: COc1cc2c3c(n(CCCNC(=O)OCC4c5ccccc5-c5ccccc54)c(=O)c2cc1OC)-c1cc2c(cc1/C3=C\CCNC(=O)OCC1c3ccccc3-c3ccccc31)OCO2
> 50000 nM
